- experimental_target: T1, human IL-36γ, truncated (human, UniProt Q9NZH8 18-169)
- T1 construct: Bought from R&D Systems (cat 6835-IL); also called human IL-36 gamma; hIL-36gamma
- T1 sequence: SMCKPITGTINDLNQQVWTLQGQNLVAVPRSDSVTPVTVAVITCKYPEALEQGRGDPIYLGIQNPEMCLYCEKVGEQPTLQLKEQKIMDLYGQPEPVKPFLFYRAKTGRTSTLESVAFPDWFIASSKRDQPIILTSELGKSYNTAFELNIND
- procedure_text: SPR, Biacore T200, antibody on chip, IL-36 as analyte, 1:1 Langmuir fit
Below, each entry is listed alongside its reported pKd.
pKd is defined as minus the log10 of a concentration measured in mol/L.

Example results:
chimeric m/h 144D464A (antibody, human IgG1, lambda, V domains shown, Mouse VH/VL joined to human IgG1 constant and human Ig lambda (IGLC2) constant; also called chimeric mouse/human (m/h) 144D464A antibody) VH: EVQLQQSGAELVKPGASVRLSCTASGFNIKDTYIHWVKQRPEQGLEWIGRIDPAIGTTRYDPKFQGKATITTDTSSDTVHLQFSSLTSEDTAVYYCARLHYFGNNFFFDYWGQGTTLTVSS VL: QAVVTQESALTTSPGEAVTLTCRSSSGAVTTSNYANWVQEKPDHLFAGLIGGTNDRAPGVPARFSGSLIGDKAALTITGAQTEDEAIYFCALWFSNHWVFGGGTKLTVLG: 8.83
m/h 144D666C (antibody, human IgG1, lambda, V domains shown, Mouse VH/VL joined to human IgG1 constant and human Ig lambda (IGLC2) constant; also called chimeric mouse/human 144D666C) VH: EVQLQQSGAELVKPGASVKLTCTASGFNIKDTYIYWVKQRPAQGLEWIGRIDPANAYTKFDPKFQGKATLTADTSSNTAYLQLSSLTSEDTAVYYCTRFHWYGSSFFFDYWGQGTTLTVSS VL: QAVVTQESALTTSPGETVTLTCRSSTGAVTTSNYANWVQEKPDHLFTGLIGGTDNRPPGVPARFSGSLIGDKAALTITGAQTEDEAIYFCALWYSNLWVFGGGTKLTVLG: 8.51
144L249B (antibody, V domains shown, Mouse monoclonal from hybridoma; mouse IgG heavy and lambda light chain; also called mouse antibody 144L249B) VH: EVQLQQSGAELVKPGASVKLSCTASGFNIKDTYIYWVKQRPEQGLEWIGRIDPAIGTTRYDPKFQGKATLTADTSSNTAFLQLSSLTSEDTAVYYCARYDYSGSSFYFDYWGRGTTLTVSS VL: QAVVTQESALTTSPGETVTLTCRSSTGAVTTSNYANWVQEKPDHLFTGLIGGTNNRAPGVPARFSGSLIGDKAALTITGAQTEDEAIYFCALWYSNHLVFGGGTKLTVL: 9.42

Request: # input binder: 144L472A (antibody, V domains shown, Mouse monoclonal from hybridoma; mouse IgG heavy and lambda light chain) VH: EVQLQQSGAELVKPGASVKLSCTVSGFNIKDTYMYWVKQRPEQGLEWIGRIDPANGYAKYDPKFQGKATLTADTSSNTAYLQLSSLTSEDTAVYFCARFHWYDSAFYFDFWGQGTTLTVSS VL: QAVVTQESALTTSPGETVTLTCRSSSGAVTTSNYANWVQEKPDHLFTGLIGGTNNRAPGVPARFSGSLIGDKAALTITGAQTEDEAIYFCGLWYSNHWVFGGGTKLTVL ; wanted: its pKd
Result: 6.00

Reference source: patent US20210380675A1
